# Tested on: RXF 393 renal
# PROTOCOL NOTES: NCI-60 one-dose screen, 48 h
# EXPERIMENTAL PARAMETERS: 10 µM unless noted
About 83,000 compounds went through this panel and 20% of them were active in at least one assay; those are over-represented in the sample as a whole. The source made the active and inactive calls. How the source made its calls: active means growth percent below 10; inactive means the rest.
Labels: 1.0 for active, 0.0 for inactive

1. COC(=O)[C@]12CCC(C)(C)C[C@H]1C1=CC[C@@H]3[C@@]4(C)C/C(=C/c5cccnc5)C(=O)C(C)(C)[C@@H]4CC[C@@]3(C)[C@]1(C)CC2 | 1.0
2. CSc1nc(=S)c2nc(SC)n(-c3ccccc3)c2[nH]1 | 0.0
3. Cc1cccc(C[C@H](NC(=O)Nc2ccc(Cl)cc2F)C(=O)N[C@@H]2C(=O)N3C[C@H](O)C[C@H]3C(=O)N3CCCC[C@H]3C(=O)N[C@@H](C)C(=O)N3C[C@H](C)C[C@H]3C(=O)O[C@H]2C)c1 | 1.0
4. COc1cc2c(O)n(CCCN3CCOCC3)c3c4cnc5cccc(c(=O)c3c2cc1OC)c54 | 0.0
5. COc1ncc(-c2ccc3nccc(C#CCCCCC(=O)O)c3c2)cc1NS(=O)(=O)c1ccc(F)cc1F | 1.0
6. COC(=O)[C@H](CC(C)C)NC(=O)NC(=O)NC(=O)CI | 0.0
7. O=C1CC(C(F)(F)F)Cc2nc3ccc(Br)cc3cc21 (stereo not given) | 0.0
8. CCN(CC)CCCC(C)Nc1ccnc2cc(Cl)c(SCc3ccccc3)cc12 (stereo not given) | 1.0
9. CCc1cccc(Cl)c1 | 0.0
10. CCOC(=O)/C(C#N)=C(\C)CCc1ccccc1 | 0.0
11. Cn1cc(-c2nnc(-c3ccccc3)s2)c2cc(Br)cnc21 | 0.0
12. COc1ccc2nc3cc(Cl)ccc3c(Nc3ccc(O)cc3)c2c1 | 0.0
13. C[C@H]1[C@H](C)CC[C@]2(C(=O)O)CC[C@]3(C)C(=CC[C@@H]4[C@@]5(C)C/C(=C/c6cccnc6)[C@H](O)C(C)(C)[C@@H]5CC[C@]43C)[C@H]12 | 1.0
14. COc1ncc(-c2ccc3nc(N)n(-c4ccccc4C(F)(F)F)c(=O)c3c2)cc1S(=O)(=O)Nc1ccc(F)cc1F | 0.0
15. CC(=O)CC(=O)SC1=NCCS1 | 0.0
16. CC1(C)[C@@H](NOCCCN)CC[C@]2(C)[C@H]3C(=O)C=C4[C@@H]5C[C@](C)(C(=O)O)CC[C@]5(C)CC[C@@]4(C)[C@]3(C)CC[C@@H]12 | 1.0
17. O=S(=O)(NCCNc1nccc(-c2c(-c3cccc(F)c3)nc3occn23)n1)c1ccc(C(F)(F)F)cc1 | 0.0
18. Clc1ccc(/C=N/Nc2nc3ccccc3s2)c(Cl)c1 | 0.0
19. COC(=O)c1cc2c(=O)[nH]cc3c2c(n1)CCC3 | 0.0
20. CCCCNC(=O)NS(=O)(=O)Cc1ccccc1 | 0.0

====

# Tested on: UACC-62 melanoma
# PROTOCOL NOTES: NCI-60 one-dose screen, 48 h (100 = growth as untreated, 0 = no growth, -100 = all killed)
# EXPERIMENTAL PARAMETERS: 10 µM unless noted
Compounds without any hit were thinned out: in the full panel of roughly 83,000, 20% have a hit. The source made the active and inactive calls. Rule for the calls: active = growth percent below 10; inactive = the rest.
Measured growth values are reported for all entries that follow.
READOUT LABEL: growth

1. c1ccc2c(c1)CN(CCCN1CCOCC1)C2 | 96.7% (inactive)
2. CC(C)[N+](C)(C)CC(O)COc1cccc2ccccc12 (stereo not given) | 101% (inactive)
3. Cc1ccc(NC(=O)N[C@@H](Cc2cc(F)cc(F)c2)C(=O)N[C@@H]2C(=O)N3CCC[C@H]3C(=O)N3CCOC[C@H]3C(=O)N[C@@H](C)C(=O)N3C[C@H](C)C[C@H]3C(=O)O[C@H]2C)cc1 | 26.3% (inactive)
4. C[C@H]1[C@H](C)CC[C@]2(COC(=O)CCC(=O)O)CC[C@]3(C)C(=CC[C@@H]4[C@@]5(C)CCCNC(C)(C)[C@@H]5CC[C@]43C)[C@H]12 | 56.3% [100 µM] (inactive)
5. COc1ccc2c3ccnc(C(F)(F)F)c3n(CCCCN)c2c1 | 39.2% (inactive)

====

# System: K-562 leukemia
# PROTOCOL NOTES: NCI-60 one-dose screen, 48 h
# EXPERIMENTAL PARAMETERS: 10 µM unless noted
About 83,000 compounds went through this panel and 20% of them were active in at least one assay; those are over-represented in the sample as a whole. Calls of active or inactive are those of the source. The calls were made as follows: active = growth percent below 10; inactive = the rest.
Labels: active, inactive

1. CCN(CC)CCSC(=O)C(O)(c1ccccc1)C1CCCC1 (stereo not given) | inactive
2. O=c1c2c3c(sc2n2cnnc2n1Cc1ccccc1)CCCC3 | inactive
3. Cc1cc(SC#N)ncn1 | inactive
4. COc1ccc(NCc2cn(-c3ccc(C(=O)O)cc3)nc2-c2ccc(C(=O)O)cc2)cc1C(F)(F)F | inactive
5. Cc1ccc(-n2nc3n(/c2=N\C(=O)NS(=O)(=O)c2ccc(C)cc2)CCN3C2=NCCN2)cc1 | inactive
6. CC(C)c1ccc(/C=N/N=C(N)N)cc1 | inactive
7. O=C1CN(Cc2ccc(C(=O)NO)cc2)C(=O)[C@@H](Cc2ccccc2)N1 | inactive
8. COc1ccc(OC)c([N+](=O)[O-])c1C(=O)CNC(C)=O | inactive
9. c1nc(N2CCOCC2)c2[nH]ccc2n1 | inactive
10. Cc1ncc(C(=O)Nc2ccc(CN3CCN(C)CC3)c(C(F)(F)F)c2)cc1C#Cc1c(N)ncc2ccc(C#N)cc12 | active
11. CCOC(=O)C(C(C)=O)c1nc2sc3cc(Cl)c(Cl)cc3n2c(=O)c1C#N (stereo not given) | inactive
12. Brc1ccc2c(c1)CN(C1CCCCC1)CO2 | inactive
13. CCOC(=O)c1cc(C(=O)c2ccc(OC)c(OC)c2)n2ccc(-c3ccccn3)cc12 | inactive
14. CCCCOC(=O)c1cccc([N+](=O)[O-])c1 | inactive
15. COC(=O)[C@]1(C)CC[C@]2(C)CC[C@]3(C)C(=CC(=O)[C@@H]4[C@@]5(C)CCC(=O)NC(C)(C)[C@@H]5CC[C@]43C)[C@@H]2C1 | active
16. N#C/C(=C(/O)CCCO)c1nc2ccccc2c(=O)[nH]1 | inactive
17. O=C(CCN1CCCCC1)c1ccc2ccccc2c1 | inactive
18. c1ccc(-c2nnc(-c3c[nH]c4ncccc34)s2)cc1 | inactive
19. C=C(C)[C@@H]1CC[C@]2(C)[C@H](CC[C@@H]3[C@@H]([C@@](C)(O)CCC=C(C)C)CC[C@]32C)[C@@]1(C)CCC(=O)O | inactive
20. C=C(C)[C@@H]1CC[C@]2(C(=O)NCCNCCNCCN)CC[C@]3(C)[C@H](CC[C@@H]4[C@@]5(C)CCC(=O)C(C)(C)[C@@H]5CC[C@]43C)[C@@H]12 | active

====

# System: KM12 colon
# PROTOCOL NOTES: NCI-60 one-dose screen, 48 h
# EXPERIMENTAL PARAMETERS: 10 µM unless noted
Compounds without any hit were thinned out: in the full panel of roughly 83,000, 20% have a hit. Activity calls are given as the source filed them. How the source made its calls: active means growth percent below 10; inactive means the rest.
Outcomes: yes = active, no = inactive

1) CCN(CC)CCCCCCNc1cccc2cc(Br)cnc12 | no
2) Clc1ccc(/C=N/Nc2nc3ccccc3s2)c(Cl)c1 | no
3) COc1ccc2[nH]c(C(=O)N3CCN(C(=O)OCc4ccc5c(Br)cc(Br)c(O)c5n4)CC3)cc2c1 | yes
4) c1ccc2c(c1)CN(CCCN1CCOCC1)C2 | no
5) CCc1ccc(-c2ccc(COc3ccc(CC4SC(=O)NC4=O)cc3)cc2)cc1 (stereo not drawn) | no
6) CCOC(=O)Nc1ccc2c(c1)/C(=N\NC(=S)NC)c1ccccc1-2 | no
7) O=C(OCc1ccc2c(Cl)cc(Cl)c(O)c2n1)N1CCN(C(=O)c2cc3cc(F)ccc3[nH]2)CC1 | yes
8) CCCCCCCCCCCCCC[n+]1cccc(C(N)=O)c1 | yes
9) O=C(Nc1ccc(F)cc1)c1ccccc1 | no
10) N/C(=N\c1nc2ccccc2[nH]1)NC(=O)Cc1cccc2ccccc12 | no
11) Cc1ccc(C2=C/C(=C/c3ccc(Br)cc3)C(=O)N2CCc2ccc(S(N)(=O)=O)cc2)cc1 | no
12) CN(Cc1cccc(C(F)(F)F)c1)C(=O)[C@@H](CC(=O)N1CCC(N2CCCCC2)CC1)N1C(=O)[C@@H](N2C(=O)OC[C@@H]2c2ccccc2)[C@H]1/C=C/c1ccccc1 | no
13) Clc1ccccc1/C=N\Nc1ccccn1 | no
14) OC(c1ccc(Cl)cc1)(c1ccc(Cl)cc1)C(O)(c1ccc(Cl)cc1)c1ccc(Cl)cc1 | no
15) C#C[C@]1(O)CC[C@H]2[C@@H]3CC=C4c5nc(Nc6ccccc6[N+](=O)[O-])sc5CC[C@]4(C)[C@H]3CC[C@@]21C | no
16) CC(=O)Nc1ccc(C=Nc2ccc3ccccc3c2)cc1 | no
17) C#C[C@]1(O)CC[C@H]2[C@@H]3CC=C4c5nc(Nc6ncccn6)sc5CC[C@]4(C)[C@H]3CC[C@@]21C | no
18) COC(=O)C(=Cc1ccccc1[N+](=O)[O-])C(=O)OC | no
19) CC1(C(=O)O)CCC(N)(C(=O)O)C1(C)C (stereo not drawn) | no
20) O=C(N=c1n(-c2ccccc2)nc2n1CCN2C1=NCCN1C(=O)c1ccc(Cl)cc1)c1ccc(Cl)cc1 | no
21) CCOc1ccc(/C=C(\C#N)c2cc3ccccc3[nH]2)cc1 | no
22) O=C1/C(=C/c2ccc(OCc3ccccc3)cc2)Oc2cc(OCCN3CCCCC3)ccc21 | no
23) COc1ccc(-c2cc(-c3ccccc3)nc(NCCNc3ccnc4cc(Cl)ccc34)n2)cc1 | yes
24) CCCSc1nc(N)nc2nc[nH]c12 | no
25) COc1cc(-c2nc(SCCC(C)C)nc(Nc3ccc(S(N)(=O)=O)cc3)c2C#N)cc(OC)c1OC | no
26) CC(C)(C)OC(=O)N1C=C/C(=C\Cn2cc(-c3ccccc3)nn2)CC1 | no
27) C=C(C)[C@@H]1CC[C@]2(C(N)=O)CC[C@]3(C)[C@H](CC[C@@H]4[C@@]5(C)C/C(=C/c6cccnc6)[C@H](O)C(C)(C)[C@@H]5CC[C@]43C)[C@@H]12 | no
28) CCOC(=O)c1ccc2nc(-c3c(C)nn(-c4ccccc4)c3N3CCOCC3)[nH]c2c1 | no
29) Cc1cc(C)nc(SCC(=O)Nc2cccc(N=Cc3ccccc3O)c2)n1 | no
30) CC(=O)Nc1ccc2nc3ccc(NC(C)=O)cc3[n+](-c3ccccc3)c2c1 | no
31) CCCOc1ccc(-c2nc(-c3ccc(N)cc3)cs2)cc1 | no
32) C#C[C@]1(O)CC[C@H]2[C@@H]3CC=C4c5nc(N)sc5CC[C@]4(C)[C@H]3CC[C@@]21C | no
33) CC(C)=CC/C=C(/C)[C@H]1CC[C@]2(C)[C@@H]1CC[C@@H]1[C@@]3(C)CC/C(=N/O)C(C)(C)[C@@H]3CC[C@]12C | no
34) CC(=O)OC[C@]12CC[C@@H](C(=O)CBr)[C@@H]1[C@H]1CC[C@@H]3[C@@]4(C)CCCNC(C)(C)[C@@H]4CC[C@@]3(C)[C@]1(C)CC2 | yes
35) CCc1ccc(C2=C/C(=C/c3ccccc3)C(=O)N2CCc2ccc(S(N)(=O)=O)cc2)cc1 | no
36) CC(C)=CC/C=C(/C)[C@H]1CC[C@]2(C)[C@@H]1CC[C@@H]1[C@@]3(C)CCCNC(C)(C)[C@@H]3CC[C@]12C | yes
37) Nc1ccc(Cl)c([N+](=O)[O-])c1 | no
38) Nc1nc(N)c2c(n1)NC(c1ccc(F)cc1)C1CCc3ccccc3C1=N2 (stereo not drawn) | no
